Ref: patent US20160280688A1

tgt: UniProtKB P03951
pIC50: −log10 of the molar value. Structures can show the parent of a compound that is named as a salt.
measured parameter: pIC50

INSERT INTO assay_data (compound, tgt, measured_parameter, result_number) VALUES
  ('CC(C)c1nc2c(F)c(F)c(-c3ccc(C[C@H](NC(=O)[C@H]4CC[C@H](CN)CC4)C(=O)Nc4ccc5[nH]c(=O)[nH]c5c4)cc3)cc2[nH]1 [Example 35, hydrochloride]', 'UniProtKB P03951', 'pIC50', 8.16),
  ('NC[C@H]1CC[C@H](C(=O)N[C@@H](Cc2ccc(-c3ccc4c(c3)NC(=O)CC4)cc2)C(=O)Nc2ccc(-c3nn[nH]n3)cc2)CC1 [Example 9, hydrochloride]', 'UniProtKB P03951', 'pIC50', 8.43),
  ('NC[C@H]1CC[C@H](C(=O)N[C@@H](Cc2ccc(-c3ccc4c(c3)CNC4=O)cc2)C(=O)Nc2ccc(-c3nc(C(F)(F)C(F)(F)C(=O)O)n[nH]3)cc2)CC1 [Example 29, hydrochloride]', 'UniProtKB P03951', 'pIC50', 8.41),
  ('NC[C@H]1CC[C@H](C(=O)N[C@@H](Cc2ccc(-c3ccc4c(c3)NC(=O)CC4)cc2)C(=O)Nc2ccc(-c3nn[nH]n3)c(F)c2)CC1 [Example 12, hydrochloride]', 'UniProtKB P03951', 'pIC50', 8.62),
  ('NCC1CCC(C(=O)N[C@@H](Cc2ccc(-c3cnc4[nH]ccc4c3)cc2)C(=O)Nc2ccc(-c3nn[nH]n3)cc2)CC1 (stereo partly drawn) [Example 2, hydrochloride]', 'UniProtKB P03951', 'pIC50', 8.59),
  ('CC(C)n1[nH]c2cc(-c3ccc(C[C@H](NC(=O)[C@H]4CC[C@H](CN)CC4)C(=O)Nc4ccc5cn[nH]c5c4)cc3)ccc2c1=O [Example 32, hydrochloride]', 'UniProtKB P03951', 'pIC50', 7.55),
  ('Cc1cc2nc(C(C)C)[nH]c2nc1-c1ccc(C[C@H](NC(=O)[C@H]2CC[C@H](CN)CC2)C(=O)Nc2ccc3[nH]c(=O)[nH]c3c2)cc1 [Example 37, hydrochloride]', 'UniProtKB P03951', 'pIC50', 8.31);

[1] NC[C@H]1CC[C@H](C(=O)N[C@@H](Cc2ccc(-c3cccc4[nH]nc(N)c34)cc2)C(=O)Nc2ccc(-c3nn[nH]n3)cc2)CC1 [Example 10, hydrochloride]
[2] CC(C)c1nc2cc(C(F)(F)F)c(-c3ccc(C[C@H](NC(=O)[C@H]4CC[C@H](CN)CC4)C(=O)Nc4ccc5[nH]c(=O)[nH]c5c4)cc3)cc2[nH]1 [Example 31, hydrochloride]
[3] Cc1nc2c(cc1-c1ccc(C[C@H](NC(=O)[C@H]3CC[C@H](CN)CC3)C(=O)Nc3ccc4[nH]c(=O)[nH]c4c3)cc1)NCCN2 [Example 28, hydrochloride]
[4] CC(C)n1[nH]c2cc(-c3ccc(C[C@H](NC(=O)[C@H]4CC[C@H](CN)CC4)C(=O)Nc4ccc5[nH]c(=O)[nH]c5c4)cc3)ccc2c1=O [Example 33, hydrochloride]
[5] NC[C@H]1CC[C@H](C(=O)N[C@@H](Cc2ccc(-c3c[nH]c(=O)[nH]c3=O)cc2)C(=O)Nc2ccc(-c3nn[nH]n3)cc2)CC1 [Example 14, hydrochloride]
Would you mind ranking these compounds by ascending pIC50? Ranked list of labels, please, in the requested order. 3, 4, 5, 2, 1

====

tgt: human plasmin (Homo sapiens, UniProt P00747)
Sequence (P00747 581-810 limits assumed): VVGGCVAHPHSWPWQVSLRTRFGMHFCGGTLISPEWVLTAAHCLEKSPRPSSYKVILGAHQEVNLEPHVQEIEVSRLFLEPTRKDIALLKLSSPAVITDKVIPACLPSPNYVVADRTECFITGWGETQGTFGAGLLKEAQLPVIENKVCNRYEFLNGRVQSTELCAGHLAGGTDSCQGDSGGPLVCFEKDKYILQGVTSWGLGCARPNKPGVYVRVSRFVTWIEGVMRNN
Sequence (P00747 97-580 partner limits assumed): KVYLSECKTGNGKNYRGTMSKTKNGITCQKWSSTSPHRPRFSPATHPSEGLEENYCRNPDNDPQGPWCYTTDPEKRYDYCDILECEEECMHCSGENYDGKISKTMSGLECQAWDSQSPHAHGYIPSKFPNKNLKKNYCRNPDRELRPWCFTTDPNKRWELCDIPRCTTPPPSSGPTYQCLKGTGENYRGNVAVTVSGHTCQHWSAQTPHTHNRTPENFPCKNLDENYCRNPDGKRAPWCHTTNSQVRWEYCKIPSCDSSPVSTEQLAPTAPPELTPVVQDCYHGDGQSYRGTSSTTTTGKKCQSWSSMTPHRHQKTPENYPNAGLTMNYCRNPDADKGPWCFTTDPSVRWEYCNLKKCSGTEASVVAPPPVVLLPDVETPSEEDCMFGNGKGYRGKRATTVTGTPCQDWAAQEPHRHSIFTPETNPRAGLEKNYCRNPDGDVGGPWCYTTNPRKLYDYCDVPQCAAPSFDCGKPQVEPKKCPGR
Structures can show the parent of a compound that is named as a salt.
measured parameter: IC50 (nM)

Look over these answered cases.
INSERT INTO assay_data (molecule, tgt, measured_parameter, result_number) VALUES
  ('CC(C)n1[nH]c2cc(-c3ccc(C[C@H](NC(=O)[C@H]4CC[C@H](CN)CC4)C(=O)Nc4ccc5cn[nH]c5c4)cc3)ccc2c1=O [Example 32, hydrochloride]', 'human plasmin (Homo sapiens, UniProt P00747)', 'IC50', 8.7),
  ('CC(C)c1nc2cc(C(F)(F)F)c(-c3ccc(C[C@H](NC(=O)[C@H]4CC[C@H](CN)CC4)C(=O)Nc4ccc5[nH]c(=O)[nH]c5c4)cc3)cc2[nH]1 [Example 31, hydrochloride]', 'human plasmin (Homo sapiens, UniProt P00747)', 'IC50', 2.1),
  ('NC[C@H]1CC[C@H](C(=O)N[C@@H](Cc2ccc(-c3ccc4c(c3)NC(=O)CC4)cc2)C(=O)Nc2ccc(-c3nn[nH]n3)cc2)CC1 [Example 9, hydrochloride]', 'human plasmin (Homo sapiens, UniProt P00747)', 'IC50', 25);

[a] CC(C)c1nc2c(F)c(F)c(-c3ccc(C[C@H](NC(=O)[C@H]4CC[C@H](CN)CC4)C(=O)Nc4ccc5[nH]c(=O)[nH]c5c4)cc3)cc2[nH]1 [Example 35, hydrochloride]
[b] Cc1cc2nc[nH]c2cc1-c1ccc(C[C@H](NC(=O)C2CCC(CN)CC2)C(=O)Nc2ccc(-c3nn[nH]n3)cc2)cc1 (stereo partly drawn) [Example 1, hydrochloride]
Which numeric IC50 is bigger, that of a or that of b ? Kindly give the label for the entry you pick. b

[A] Cc1cc2[nH]c(C(C)C)nc2cc1-c1ccc(C[C@H](NC(=O)C2CCC(CN)CC2)C(=O)Nc2ccc3[nH]c(=O)[nH]c3c2)cc1 (single isomer, unassigned; enantiomer 2) [Example 39]
[B] Cc1cc2nc(C(C)C)[nH]c2cc1-c1ccc(C[C@H](NC(=O)[C@H]2CC[C@H](CN)CC2)C(=O)Nc2ccc(-c3nnc(C(F)(F)C(F)(F)C(=O)O)[nH]3)cc2)cc1 [Example 24, hydrochloride]
[C] Cc1cc2oc(C3CC3)nc2cc1-c1ccc(C[C@H](NC(=O)[C@H]2CC[C@H](CN)CC2)C(=O)Nc2ccc(-c3nnn[nH]3)cc2)cc1.Cl (relative stereo) [Example 26, hydrochloride]
[D] CC(C)n1[nH]c2cc(-c3ccc(C[C@H](NC(=O)[C@H]4CC[C@H](CN)CC4)C(=O)Nc4ccc5[nH]c(=O)[nH]c5c4)cc3)ccc2c1=O [Example 33, hydrochloride]
[E] Cc1cc2nc[nH]c2cc1-c1ccc(C[C@H](NC(=O)[C@H]2CC[C@H](CN)CC2)C(=O)Nc2ccc3c(=O)[nH][nH]c3c2)cc1 [Example 8, hydrochloride]
Rank entries according to their IC50, from the largest number down. Ranked list of labels, please, in the requested order. E, D, C, B, A
(E: 21 nM, D: 5.9 nM, C: 2.7 nM, B: 1.4 nM, A: 0.64 nM)

====

tgt: human factor XIa (Homo sapiens)
Sequence (P03951 388-625 limits assumed): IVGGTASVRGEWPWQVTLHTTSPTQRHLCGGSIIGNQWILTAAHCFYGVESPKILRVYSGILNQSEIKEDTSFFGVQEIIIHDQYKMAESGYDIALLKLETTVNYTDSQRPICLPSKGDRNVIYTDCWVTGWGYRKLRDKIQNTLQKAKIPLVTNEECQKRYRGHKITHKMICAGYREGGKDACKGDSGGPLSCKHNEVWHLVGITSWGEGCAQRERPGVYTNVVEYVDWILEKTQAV
Sequence (P03951 19-387 partner limits assumed): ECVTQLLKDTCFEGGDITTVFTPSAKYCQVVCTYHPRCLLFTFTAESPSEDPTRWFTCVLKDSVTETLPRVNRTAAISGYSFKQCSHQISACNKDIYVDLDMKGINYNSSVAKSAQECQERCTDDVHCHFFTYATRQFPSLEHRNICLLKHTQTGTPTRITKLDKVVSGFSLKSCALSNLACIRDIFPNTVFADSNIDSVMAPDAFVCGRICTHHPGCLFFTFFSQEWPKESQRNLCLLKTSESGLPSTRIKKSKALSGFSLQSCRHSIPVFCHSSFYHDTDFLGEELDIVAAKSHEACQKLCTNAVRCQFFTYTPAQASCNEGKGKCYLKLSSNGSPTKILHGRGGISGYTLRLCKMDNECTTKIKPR
pIC50: −log10 of the molar value. Where a name gives a salt, the structure may show the parent alone.
measured parameter: pIC50

Look over these answered cases.
INSERT INTO assay_data (compound, result_number) VALUES
  ('NCCn1cnc2cc(-c3ccc(C[C@H](NC(=O)C4CCC(CN)CC4)C(=O)Nc4ccc(-c5nn[nH]n5)cc4)cc3)ccc21 (stereo partly drawn) [Example 13, hydrochloride]', 8.18),
  ('Cc1cc2[nH]c(C3CC3)nc2cc1-c1ccc(C[C@H](NC(=O)[C@H]2CC[C@H](CN)CC2)C(=O)Nc2cc(Cl)c3[nH]c(=O)[nH]c3c2)cc1', 9.05),
  ('Cn1cc(-c2ccc(C[C@H](NC(=O)C3CCC(CN)CC3)C(=O)Nc3ccc(-c4nn[nH]n4)cc3)cc2)c(=O)[nH]c1=O (stereo partly drawn) [Example 5, hydrochloride]', 8.29),
  ('NC[C@H]1CC[C@H](C(=O)N[C@@H](Cc2ccc(-c3cc4nc(C5CC5)[nH]c4cc3Cl)cc2)C(=O)Nc2ccc3[nH]c(=O)[nH]c3c2)CC1 [Example 23, hydrochloride]', 8.64),
  ('NC[C@H]1CC[C@H](C(=O)N[C@@H](Cc2ccc(-c3cn(Cc4ccccc4)c(=O)[nH]c3=O)cc2)C(=O)Nc2ccc(-c3nn[nH]n3)cc2)CC1 [Example 17, hydrochloride]', 9.30);

[P] NCC1CCC(C(=O)N[C@@H](Cc2ccc(-c3cncc4ccccc34)cc2)C(=O)Nc2ccc(-c3nn[nH]n3)cc2)CC1 (stereo partly drawn) [Example 3, hydrochloride]
[Q] Cc1cc2[nH]c(C(C)C)nc2cc1-c1ccc(C[C@H](NC(=O)[C@H]2CC[C@H](CN)CC2)C(=O)Nc2ccc3nc(C(F)(F)C(F)(F)F)[nH]c3c2)cc1 [Example 25, hydrochloride]
[R] Cn1cc(-c2ccc(C[C@H](NC(=O)[C@H]3CC[C@H](CN)CC3)C(=O)Nc3ccc(-c4nn[nH]n4)cc3)cc2)c(=O)n(C)c1=O [Example 11, hydrochloride]
[S] Cc1nc2[nH]c(C3CC3)nc2cc1-c1ccc(C[C@H](NC(=O)[C@H]2CC[C@H](CN)CC2)C(=O)Nc2ccc3[nH]c(=O)[nH]c3c2)cc1
[T] Cn1c(=O)[nH]c2ccc(-c3ccc(C[C@H](NC(=O)C4CCC(CN)CC4)C(=O)Nc4ccc(-c5nn[nH]n5)cc4)cc3)cc21 (stereo partly drawn) [Example 4, hydrochloride]
Would you mind ranking these compounds by ascending pIC50? Ranked list of labels, please, in the requested order. Q, T, R, P, S
(Q: 7.89, T: 8.25, R: 8.49, P: 8.85, S: 9.15)
